- System: wheat (Triticum aestivum)
- assay_explanation: Test A postemergence, wheat
- Format: in vivo
- condition_info: Postemergence, 500 g ai/ha; visual injury vs untreated controls after approx. 10 days; 0 to 100 scale (0 no effect, 100 complete control)
experimental_endpoint: Wheat plant response rating
Give bare numbers.

Example results:
COc1c(Cl)nn(C)c(=O)c1-c1cc(NS(=O)(=O)C(F)(F)F)c(C)cc1C [Compound 64] :: 60
Cc1cc(C)c(N(S(=O)(=O)C(F)(F)F)S(=O)(=O)C(F)(F)F)cc1-c1cc(C(F)(F)F)nn(C)c1=O [Compound 61] :: 70
Cc1cc(Cl)c(N(S(=O)(=O)C(F)(F)F)S(=O)(=O)C(F)(F)F)cc1C1=NOC2(CCCCC2)C1 [Compound 217] :: 30
COC(=O)N(c1cc(-c2ccnn(C)c2=O)c(C)cc1C)S(=O)(=O)C(F)(F)F [Compound 53] :: 0
Cc1c(NS(=O)(=O)C(F)(F)F)cc(C(=O)N2CCC(F)CC2)c(C)c1F [Compound 109] :: 70

Hi! Can you tell me Wheat plant response rating for each of these compounds?
1. Cc1cc(C)c(C2=NOC3(CCC4(CC3)OCCO4)C2)cc1NS(=O)(=O)C(F)(F)F [Compound 135]
2. Cc1cc(-c2cc(N(S(=O)(=O)C(F)(F)F)S(=O)(=O)C(F)(F)F)c(C)cc2C)c(=O)n(C)n1 [Compound 75]

1: 70; 2: 70

Cited source for all entries: patent US20230278972A1
